targetDesc: T1, human FOLR1 recombinant protein (extracellular domain of human folate receptor alpha) (human, UniProt P15328 25-233)
T1 construct: Bought recombinant protein (Sino Biological); also called hFOLR1; FR-alpha
T1 sequence (P15328 25-233): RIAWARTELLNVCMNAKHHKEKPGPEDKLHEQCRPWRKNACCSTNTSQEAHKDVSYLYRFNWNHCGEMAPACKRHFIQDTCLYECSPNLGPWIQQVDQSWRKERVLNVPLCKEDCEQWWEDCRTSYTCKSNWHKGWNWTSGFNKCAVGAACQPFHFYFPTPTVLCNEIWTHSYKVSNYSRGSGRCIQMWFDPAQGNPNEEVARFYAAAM
experiment: SPR (Biacore T200), human FOLR1 immobilized on CM5, His6-tagged VHH as analyte, 1:1 fit
readoutName: kon (M⁻¹ s⁻¹)
Please give a number only; it is taken to be in M⁻¹ s⁻¹.

Q: I have this binder here, His6-tagged variant of VHH A2 (VHH, Purified, unlabelled; also called A2 His6-tag) VHH: DVQLVESGGGLVQAGGSLRLSCAADEMKFSNYDLAWYRRAPGKQRELAAIITSGGSTNYPDSVKGRFTISRDNAKNTVYLEMNSLKPEDTAVYYCNALRPWPQFSDYWGQGTQVTVSS , and I need its recorded kon.
A: 1.3e+06

Q: Try this binder next: His6-tagged variant of VHH A4 (VHH, Purified, unlabelled; also called A4 His6-tag) VHH: DVQLVESGGGLARAGGSLRLSCAASGRAFSSTYAMGWFRQAPGKEREFVADINWSEGSPMYIDSVKDRFTISRDNARNSLYLQMNSLKSEDTAVYYCAARRFGQGYEYWGQGTQVTVSS
A: 1.3e+06

Q: Likewise for His6-tagged variant of VHH A5 (VHH, Purified, unlabelled; also called A5 His6-tag) VHH: DVQLVESGGGLVQAGGSLRLSCGVSGNIFSMNLMGWYRQPPGKEREWVALITKDGSTNYEDSVKGRFTISRDNAKNTVSLQMNSLKPEDTAVYYCNAQDGSGWIRAWGWDWGQGTQVTVSS ?
A: 1.3e+06

Q: Same thing, different binder: His6-tagged variant of VHH A1 (VHH, Purified, unlabelled; also called A1 His6-tag) VHH: DVQLVESGGGLVQPGGSLRLSCAASESIFSRNHMSWYRQAPGKQRELAAIITSDGNTNYPDSVKGRFTISRDNAKNTVYLQMNSLKPEDTAVYYCNTFGRSVAGFYDYWGQGTQVTVSS
A: 3.6e+06

Q: Another binder to look at: His6-tagged variant of VHH A3 (VHH, Purified, unlabelled; also called A3 His6-tag) VHH: DVQLVESGGGLVQAGGSLRLSCGVSGNMFSMNLMGWYRQPPGKERDWVAVITKDGSTNYADSVKGRFTISRDNAKNTVSLQMNSLKPEDTAVYYCNVQDGSGWIRAWGWDWGQGTQVTVSS
A: 1.2e+06
